Parameter IC50, tested on Mu-type opioid receptor (Cavia porcellus, UniProt P97266), listed per item.
Sequence (P97266 whole entry): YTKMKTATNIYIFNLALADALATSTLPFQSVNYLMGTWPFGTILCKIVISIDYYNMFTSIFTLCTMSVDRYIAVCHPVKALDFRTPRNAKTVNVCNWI
Give bare numbers, in nM.

- smiles_code: "CC[C@H](C)[C@H](NC(=O)[C@H](CCCN=C(N)N)NC(=O)[C@H](CCCN=C(N)N)NC(=O)[C@H](CC(C)C)NC(=O)[C@H](Cc1ccccc1)NC(=O)[C@@H](NC(=O)CNC(=O)[C@@H](N)Cc1ccc(O)cc1)[C@@H](C)c1c(C)cccc1C)C(=O)N[C@@H](CCCN=C(N)N)C(=O)N1CCC[C@H]1C(=O)N[C@@H](CCCCN)C(N)=O"
  readout_type: "IC50"
  unit_string: "nM"
  measurement: 2800
- smiles_code: "CC[C@H](C)[C@H](NC(=O)[C@H](CCCN=C(N)N)NC(=O)[C@H](CCCN=C(N)N)NC(=O)[C@H](CC(C)C)NC(=O)[C@H](Cc1ccccc1)NC(=O)[C@@H](Cc1ccc(O)cc1)NC(=O)CNC(=O)[C@@H](N)Cc1ccc(O)cc1)C(=O)N[C@@H](CCCN=C(N)N)C(=O)N1CCC[C@H]1C(=O)N[C@@H](CCCCN)C(N)=O"
  readout_type: "IC50"
  unit_string: "nM"
  measurement: 650

Now, please, on to the next molecule.
// IC50 value for "CC[C@H](C)[C@H](NC(=O)[C@H](CCCN=C(N)N)NC(=O)[C@H](CCCN=C(N)N)NC(=O)[C@H](CC(C)C)NC(=O)[C@H](Cc1ccccc1)NC(=O)[C@H](CCC(=O)O)NC(=O)CNC(=O)[C@@H](N)Cc1ccc(O)cc1)C(=O)N[C@@H](CCCN=C(N)N)C(=O)N1CCC[C@H]1C(=O)N[C@@H](CCCCN)C(N)=O" : 6600

Values were extracted from ChEMBL document CHEMBL1129348.
